Experiment: in vitro
Details: human, hela cells, % viability

{"columns": ["molecule", "quantity-unit", "viability at 28.5 h, 10 µM"],
 "data": [
  ["O=C(CSc1ccccn1)Nc1ccc(CN2CCOCC2)cc1", "%", 91],
  ["O=C(CCc1cccc(F)c1)Nc1cnc(-c2ccc(F)cc2)c(-c2ccoc2)n1", "%", 85.3],
  ["Cc1ccc(NC(=O)CSc2nnc(COc3ccc(Cl)cc3Cl)o2)cc1Cl", "%", 90.9],
  ["COc1ccc(CNC(=O)NC(=O)C2CCN(CCc3c[nH]c4ccccc34)CC2)c(OC)c1", "%", 90],
  ["CC(C(=O)Nc1cccc2[nH]ccc12)c1ccc(Cl)cc1 (stereo not shown)", "%", 107],
  ["O=C(c1cccnc1)C1CCN(C(=O)C2CCCCC2)CC1", "%", 90],
  ["Nc1cc(-c2ccco2)nn(Cc2c(Cl)cccc2Cl)c1=O", "%", 112],
  ["CC(=O)OC(COc1cccc(Cl)c1)Cn1cnc2cc(C)c(C)cc21 (stereo not shown)", "%", 86.6],
  ["O=C(O)CCn1c2ccccc2c2cc(I)ccc21", "%", 97.5],
  ["CN(c1cccc(C#N)c1)C1CCN(c2nccn(C)c2=O)C1 (stereo not shown)", "%", 105],
  ["CC(=O)N1CCN(C(=O)NC(C)C)C[C@@H]1C(=O)N[C@@H](CC1CCCCC1)C(N)=O", "%", 91.8],
  ["NC(=O)c1ccc(SCC(=O)O)c([N+](=O)[O-])c1", "%", 97.7],
  ["O=C(Cn1cc(C(=O)NCc2ccc(F)cc2)ccc1=O)NC1(c2ccccc2)CCCC1", "%", 96.9],
  ["OC(CN1CCC2(CC1)CC(O)c1cc(F)ccc1O2)c1ccc(-c2ccccc2)cc1 (stereo not shown)", "%", 102],
  ["Cc1ncccc1OC1(C(=O)NCc2cn3c(n2)SCC3)CCNCC1", "%", 103],
  ["Cc1ccc(-c2ccccc2CC2(C(=O)O)CCN(Cc3ccccc3F)CC2)c(C)c1", "%", 96.7],
  ["O=C(O)CSc1cccc2cccnc12", "%", 95],
  ["O=C(COc1cccc(Cl)c1)NNC(=S)Nc1ccccc1", "%", 88.4],
  ["CCCOc1ccc(-c2nnn(CC(=O)OCC)n2)cc1", "%", 98.8]
]}
